# Species on record: Rattus norvegicus
# Method description: DrugMatrix - Regimen: Daily Repeat
# Type: toxicity, organism-based, Sprague-Dawley
# Set-up: regimen Daily Repeat, gender Male, age 6-8 weeks
# Measurement setup: in vivo, po, 0 mg/kg, 72 h, tissue Plasma, route oral GAVAGE, dose level Control, time 3 day, vehicle 100 % WATER
# note: boundary value 6 G/DL maps to FALSE; TOTAL PROTEIN below it maps to TRUE

**Q:** State whether 6 G/DL exceeds TOTAL PROTEIN recorded for Cc1cc(C(C)(C)C)c(O)c(C)c1CC1=NCCN1 [OXYMETAZOLINE] .
**A:** TRUE

**Q:** I wonder whether CN1C(=O)OC(C)(C)C1=O [TRIMETHADIONE] has TOTAL PROTEIN below 6 G/DL. Can you tell?
**A:** FALSE

**Q:** Does the reported TOTAL PROTEIN of NN [HYDRAZINE] stay below 6 G/DL?
**A:** TRUE

* * *

Answer each item with its documented ALBUMIN.
# Organism: Rattus norvegicus
# Method description: DrugMatrix - Regimen: Daily Repeat
# Format: toxicity, organism-based, Sprague-Dawley
# Parameters: regimen Daily Repeat, gender Male, age 6-8 weeks
# Measurement setup: in vivo, iv, 0 mg/kg, 72 h, tissue Plasma, dose level Control, time 3 day, vehicle 100 % SALINE

**Q:** I would be grateful if you could share the reported ALBUMIN for COC(=O)C[C@](O)(CCC(C)(C)O)C(=O)O[C@@H]1C(OC)=C[C@]23CCCN2CCc2cc4c(cc2[C@H]13)OCO4 .
**A:** 4.27 G/DL

**Q:** Reported ALBUMIN for Cc1c(N)nc([C@H](CC(N)=O)NC[C@H](N)C(N)=O)nc1C(=O)N[C@H](C(=O)N[C@H](C)[C@@H](O)[C@H](C)C(=O)N[C@H](C(=O)NCCc1nc(-c2nc(C(=O)NCCC[S+](C)C)cs2)cs1)[C@@H](C)O)[C@@H](O[C@@H]1O[C@@H](CO)[C@@H](O)[C@H](O)[C@@H]1O[C@H]1O[C@H](CO)[C@@H](O)[C@H](OC(N)=O)[C@@H]1O)c1c[nH]cn1.[Br-] : what is it?
**A:** 4.15 G/DL

**Q:** Which value of ALBUMIN has been reported for CC(=O)[C@]1(O)Cc2c(O)c3c(c(O)c2[C@@H](O[C@H]2C[C@H](N)[C@H](O)[C@H](C)O2)C1)C(=O)c1ccccc1C3=O in the records?
**A:** 4.08 G/DL

**Q:** Consider the compound shown here: CO[C@@]12[C@H](COC(N)=O)C3=C(C(=O)C(C)=C(N)C3=O)N1C[C@@H]1N[C@@H]12 What is its recorded ALBUMIN?
**A:** 4.33 G/DL

* * *

# Species: Rattus norvegicus
# Method description: DrugMatrix - Regimen: Daily Repeat
# Assay type: toxicity, organism-based, Sprague-Dawley
# Design: regimen Daily Repeat, gender Male, age 6-8 weeks
# Measurement setup: in vivo, po, 0 mg/kg, 72 h, tissue Blood, route oral GAVAGE, dose level Control, time 3 day, vehicle .5 % CMC
Please respond with reported MEAN CORPUSCULAR HEMOGLOBIN CONCENTRATION for every item in the list.
Just so you know, I need the unit written after the number.

**Q:** If you can, please state the reported MEAN CORPUSCULAR HEMOGLOBIN CONCENTRATION value of CCN1CCN(c2cc3c(cc2F)c(=O)c(C(=O)O)cn3C2CC2)CC1 .
**A:** 37.4 G/DL

**Q:** Using the record for NCC(CC(=O)O)c1ccc(Cl)cc1 (stereo not given) , report its MEAN CORPUSCULAR HEMOGLOBIN CONCENTRATION.
**A:** 39.4 G/DL

**Q:** Which value of MEAN CORPUSCULAR HEMOGLOBIN CONCENTRATION has been reported for CN(C)CCOC(c1ccccc1)c1ccccc1.Cn1c(=O)c2[nH]c(Cl)nc2n(C)c1=O [DIMENHYDRINATE] in the records?
**A:** 40.27 G/DL

**Q:** # MEAN CORPUSCULAR HEMOGLOBIN CONCENTRATION lookup, item Nc1ccc(C(=O)O)c(O)c1
**A:** 39.5 G/DL

**Q:** What MEAN CORPUSCULAR HEMOGLOBIN CONCENTRATION value was documented for this compound, CC(C)NCC(O)COc1ccc(CC(N)=O)cc1 (stereo not given) ?
**A:** 39.17 G/DL

**Q:** Return reported MEAN CORPUSCULAR HEMOGLOBIN CONCENTRATION; argument: NC(=O)CN1CCCC1=O
**A:** 38.98 G/DL

**Q:** Tell me the measured MEAN CORPUSCULAR HEMOGLOBIN CONCENTRATION of O=C(O)CCc1nc(-c2ccccc2)c(-c2ccccc2)o1 , please.
**A:** 38.85 G/DL

**Q:** Could you tell me which MEAN CORPUSCULAR HEMOGLOBIN CONCENTRATION is on file for CC(C)Cc1ccc([C@H](C)C(=O)O)cc1 ?
**A:** 30.47 G/DL

**Q:** Which MEAN CORPUSCULAR HEMOGLOBIN CONCENTRATION is listed for O=C1c2ccccc2C(=O)C1c1ccccc1 ?
**A:** 31 G/DL

**Q:** For the compound Cc1cc2c(s1)Nc1ccccc1N=C2N1CCN(C)CC1 , what MEAN CORPUSCULAR HEMOGLOBIN CONCENTRATION is on record?
**A:** 38.88 G/DL
